System: PANC-1 (pancreatic cancer) cell line
Experiment: Cell growth inhibition experiment (SRB), PANC-1
Format: cell-based
Conditions: Homo sapiens, incubated for 96 hours, read-out: IC50 (μM) of cancer cell lines PANC-1
measured metric: IC50 (µM)
A number alone suffices; assume µM.

## Input Quickly give me recorded IC50 for CCOc1nc2cc(Cl)sc2nc1NC(=O)N1CCN(c2cc(OC)cc(OC)c2)CC1 [Example 4]
## Output 1.28

## Input Quickly give me recorded IC50 for CCOc1nc2cc(Cl)sc2nc1NC(=O)N1CCN(c2cc(F)cc(F)c2)CC1 [Example 6]
## Output 1.98

## Input Quickly give me recorded IC50 for COc1nc2ccsc2nc1NC(=O)N1CCN(c2cc(C)cc(C)c2)CC1 [Example 11]
## Output 0.24

## Input Quickly give me recorded IC50 for CCOc1nc2ccsc2nc1NC(=O)N1CCN(c2cc(F)cc(F)c2)CC1 [Example 15]
## Output 1.12

## Input Quickly give me recorded IC50 for COc1nc2cc(Cl)sc2nc1NC(=O)N1CCN(c2cc(F)cc(F)c2)CC1 [Example 3]
## Output 0.56

## Input Quickly give me recorded IC50 for COc1nc2ccsc2nc1NC(=O)N1CCN(c2cc(OC(F)(F)F)cc(C(F)(F)F)c2)CC1 [Example 20]
## Output 0.36

## Input Quickly give me recorded IC50 for COc1nc2ccsc2nc1NC(=O)N1CCN(c2cc(F)cc(F)c2)CC1 [Example 12]
## Output 0.24

## Input Quickly give me recorded IC50 for COc1cc(C)cc(N2CCN(C(=O)Nc3nc4sccc4nc3OC)CC2)c1 [Example 21]
## Output 2.12

## Input Quickly give me recorded IC50 for COc1nc2ccsc2nc1NC(=O)N1CCN(c2cc(C)cc(F)c2)CC1 [Example 23]
## Output 0.58

## Input Quickly give me recorded IC50 for CCOc1nc2cc(Cl)sc2nc1NC(=O)N1CCN(c2cc(C)cc(C)c2)CC1 [Example 5]
## Output 2.32

## Input Quickly give me recorded IC50 for COc1cc(F)cc(N2CCN(C(=O)Nc3nc4sccc4nc3OC)CC2)c1 [Example 22]
## Output 0.63

----------
Exercise: for every item that follows, state its recorded IC50.
System: HEK293
Experiment: Cell growth inhibition experiment (SRB), HEK293
Assay type: cell-based
Settings: Homo sapiens, incubated for 96 hours, read-out: IC50 (μM) of cancer cell lines HEK293
A number alone suffices; assume µM.

## Input Quickly give me recorded IC50 for COc1nc2cc(Cl)sc2nc1NC(=O)N1CCN(c2cc(C)cc(C)c2)CC1 [Example 2]
## Output 0.93

## Input Quickly give me recorded IC50 for COc1nc2ccsc2nc1NC(=O)N1CCN(c2cc(C)cc(C)c2)CC1 [Example 11]
## Output 0.65

----------
Exercise: for every item that follows, state its recorded IC50.
Tested on: HEK293
Assay: Cell growth inhibition experiment (SRB), HEK293
Type: cell-based
Conditions: Homo sapiens, incubated for 96 hours, read-out: IC50 (μM) of cancer cell lines HEK293

## Input Quickly give me recorded IC50 for Cc1cc(C)cc(N2CCN(C(=O)Nc3nc4sccc4nc3OC(C)C)CC2)c1 [Example 17]
## Output < 2.5 µM

## Input Quickly give me recorded IC50 for COc1nc2ccsc2nc1NC(=O)N1CCN(c2cc(F)cc(OC(F)(F)F)c2)CC1 [Example 26]
## Output < 2.5 µM

## Input Quickly give me recorded IC50 for CCOc1nc2ccsc2nc1NC(=O)N1CCN(c2cc(OC)cc(OC)c2)CC1 [Example 13]
## Output < 2.5 µM

## Input Quickly give me recorded IC50 for CC(C)Oc1nc2cc(Cl)sc2nc1NC(=O)N1CCN(c2cc(F)cc(F)c2)CC1 [Example 9]
## Output < 2.5 µM

## Input Quickly give me recorded IC50 for Cc1cc(C)cc(N2CCN(C(=O)Nc3nc4sc(Cl)cc4nc3OC(C)C)CC2)c1 [Example 8]
## Output < 2.5 µM

## Input Quickly give me recorded IC50 for CC(C)Oc1nc2ccsc2nc1NC(=O)N1CCN(c2cc(F)cc(F)c2)CC1 [Example 18]
## Output < 2.5 µM

## Input Quickly give me recorded IC50 for COc1nc2ccsc2nc1NC(=O)N1CCN(c2cc(F)cc(C(F)(F)F)c2)CC1 [Example 27]
## Output < 2.5 µM

## Input Quickly give me recorded IC50 for COc1cc(OC)cc(N2CCN(C(=O)Nc3nc4sccc4nc3OC(C)C)CC2)c1 [Example 16]
## Output < 2.5 µM

----------
Tested on: HN31 (head and neck cancer) cell line
Assay: Cell growth inhibition experiment (SRB), HN31
Type: cell-based
Conditions: Homo sapiens, incubated for 96 hours, read-out: IC50 (μM) of cancer cell lines HN31
measured metric: IC50

## Input Quickly give me recorded IC50 for CC(C)Oc1nc2ccsc2nc1NC(=O)N1CCN(c2cc(F)cc(F)c2)CC1 [Example 18]
## Output < 2.5 µM

## Input Quickly give me recorded IC50 for Cc1cc(C)cc(N2CCN(C(=O)Nc3nc4sc(Cl)cc4nc3OC(C)C)CC2)c1 [Example 8]
## Output < 2.5 µM

## Input Quickly give me recorded IC50 for COc1nc2ccsc2nc1NC(=O)N1CCN(c2cccc(OC(F)(F)F)c2)CC1 [Example 24]
## Output < 2.5 µM

## Input Quickly give me recorded IC50 for Cc1cc(C)cc(N2CCN(C(=O)Nc3nc4sccc4nc3OC(C)C)CC2)c1 [Example 17]
## Output < 2.5 µM

## Input Quickly give me recorded IC50 for COc1cc(C)cc(N2CCN(C(=O)Nc3nc4sccc4nc3OC)CC2)c1 [Example 21]
## Output < 2.5 µM

## Input Quickly give me recorded IC50 for COc1nc2ccsc2nc1NC(=O)N1CCN(c2cc(F)cc(OC(F)(F)F)c2)CC1 [Example 26]
## Output < 2.5 µM

## Input Quickly give me recorded IC50 for COc1cc(OC)cc(N2CCN(C(=O)Nc3nc4sccc4nc3OC(C)C)CC2)c1 [Example 16]
## Output < 2.5 µM

## Input Quickly give me recorded IC50 for COc1nc2ccsc2nc1NC(=O)N1CCN(c2cc(F)cc(F)c2)CC1 [Example 12]
## Output 0.33 µM

## Input Quickly give me recorded IC50 for COc1cc(F)cc(N2CCN(C(=O)Nc3nc4sccc4nc3OC)CC2)c1 [Example 22]
## Output 0.45 µM

## Input Quickly give me recorded IC50 for COc1nc2cc(Cl)sc2nc1NC(=O)N1CCN(c2cc(C)cc(C)c2)CC1 [Example 2]
## Output 0.99 µM

## Input Quickly give me recorded IC50 for CCOc1nc2cc(Cl)sc2nc1NC(=O)N1CCN(c2cc(C)cc(C)c2)CC1 [Example 5]
## Output 2.35 µM

## Input Quickly give me recorded IC50 for COc1cc(OC)cc(N2CCN(C(=O)Nc3nc4sc(Cl)cc4nc3OC(C)C)CC2)c1 [Example 7]
## Output < 2.5 µM

----------
Tested on: HEK293
Assay: Cell growth inhibition experiment (SRB), HEK293
Type: cell-based
Conditions: Homo sapiens, incubated for 96 hours, read-out: IC50 (μM) of cancer cell lines HEK293
measured metric: IC50

## Input Quickly give me recorded IC50 for CCOc1nc2cc(Cl)sc2nc1NC(=O)N1CCN(c2cc(F)cc(F)c2)CC1 [Example 6]
## Output < 2.5 µM

## Input Quickly give me recorded IC50 for CCOc1nc2ccsc2nc1NC(=O)N1CCN(c2cc(F)cc(F)c2)CC1 [Example 15]
## Output < 2.5 µM

## Input Quickly give me recorded IC50 for COc1cc(OC)cc(N2CCN(C(=O)Nc3nc4sc(Cl)cc4nc3OC(C)C)CC2)c1 [Example 7]
## Output < 2.5 µM
